// data source = PubChem BioAssay AID2060337

Reported viability, T/C values are given for each entry in this list.
Test system: 832693-133-R-J1-PDC multi-cell spheroids, viability;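 note: spheroids exposed to the drugs for one week before the viability readout; 100% = DMSO vehicle control wells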
Experiment: Anticancer human tumor 832693-133-R-J1-PDC patient-derived head and neck squamous carcinoma cell line growth inhibition [IpAb]
Conditions: second compound 1 µM; first compound 0.0316 µM; stronger effect = lower value
Answer with a number only, understood to be in %.

Solved entries:
MOLECULE	viability, T/C, %
CCCS(=O)(=O)Nc1ccc(F)c(C(=O)c2c[nH]c3ncc(-c4ccc(Cl)cc4)cc23)c1F + CC(C)NCC(C(=O)N1CCN(c2ncnc3c2C(C)CC3O)CC1)c1ccc(Cl)cc1	60.1
Cn1nccc1Nc1nccc(-c2ccn(C(CO)c3ccc(Cl)c(F)c3)c(=O)c2)n1 (stereo not given) + CCN1CCN(Cc2ccc(Nc3ncc(F)c(-c4cc(F)c5nc(C)n(C(C)C)c5c4)n3)nc2)CC1	74.9
Cn1ncc(Cl)c1-c1cc(C(=O)NC(CN)Cc2cccc(F)c2)sc1Cl (stereo not given) + CCN1CCN(Cc2ccc(Nc3ncc(F)c(-c4cc(F)c5nc(C)n(C(C)C)c5c4)n3)nc2)CC1	47.6

Asked: Identify viability, T/C associated with the molecule COc1c(OCCCN2CCOCC2)ccc2c3n(c(=NC(=O)c4cnc(N)nc4)nc12)CCN3 + CC(C)NCC(C(=O)N1CCN(c2ncnc3c2C(C)CC3O)CC1)c1ccc(Cl)cc1
Given back: 12.7

Asked: Identify viability, T/C associated with the molecule CCCS(=O)(=O)Nc1ccc(F)c(C(=O)c2c[nH]c3ncc(-c4ccc(Cl)cc4)cc23)c1F + CCN1CCN(Cc2ccc(Nc3ncc(F)c(-c4cc(F)c5nc(C)n(C(C)C)c5c4)n3)nc2)CC1
Given back: 50.5

Asked: Identify viability, T/C associated with the molecule C=CCn1c(=O)c2cnc(Nc3ccc(N4CCN(C)CC4)cc3)nc2n1-c1cccc(C(C)(C)O)n1 + CCN1CCN(Cc2ccc(Nc3ncc(F)c(-c4cc(F)c5nc(C)n(C(C)C)c5c4)n3)nc2)CC1
Given back: 61.9

Asked: Identify viability, T/C associated with the molecule Cn1ncnc1[C@H]1c2n[nH]c(=O)c3cc(F)cc(c23)N[C@@H]1c1ccc(F)cc1 + CCN1CCN(Cc2ccc(Nc3ncc(F)c(-c4cc(F)c5nc(C)n(C(C)C)c5c4)n3)nc2)CC1
Given back: 65.2

Asked: Identify viability, T/C associated with the molecule Cc1nc(NC(=O)N2CCCC2C(N)=O)sc1-c1ccnc(C(C)(C)C(F)(F)F)c1 (stereo not given) + CCN1CCN(Cc2ccc(Nc3ncc(F)c(-c4cc(F)c5nc(C)n(C(C)C)c5c4)n3)nc2)CC1
Given back: 49.7

Asked: Identify viability, T/C associated with the molecule C=CCn1c(=O)c2cnc(Nc3ccc(N4CCN(C)CC4)cc3)nc2n1-c1cccc(C(C)(C)O)n1 + CC(C)NCC(C(=O)N1CCN(c2ncnc3c2C(C)CC3O)CC1)c1ccc(Cl)cc1
Given back: 51.7

Asked: Identify viability, T/C associated with the molecule Cc1nc(NC(=O)N2CCCC2C(N)=O)sc1-c1ccnc(C(C)(C)C(F)(F)F)c1 (stereo not given) + CC(C)NCC(C(=O)N1CCN(c2ncnc3c2C(C)CC3O)CC1)c1ccc(Cl)cc1
Given back: 52.2
